# assayed-target: GPR68/OGR1 (Homo sapiens (Human), UniProt Q15743)
# Sequence (Q15743 whole entry): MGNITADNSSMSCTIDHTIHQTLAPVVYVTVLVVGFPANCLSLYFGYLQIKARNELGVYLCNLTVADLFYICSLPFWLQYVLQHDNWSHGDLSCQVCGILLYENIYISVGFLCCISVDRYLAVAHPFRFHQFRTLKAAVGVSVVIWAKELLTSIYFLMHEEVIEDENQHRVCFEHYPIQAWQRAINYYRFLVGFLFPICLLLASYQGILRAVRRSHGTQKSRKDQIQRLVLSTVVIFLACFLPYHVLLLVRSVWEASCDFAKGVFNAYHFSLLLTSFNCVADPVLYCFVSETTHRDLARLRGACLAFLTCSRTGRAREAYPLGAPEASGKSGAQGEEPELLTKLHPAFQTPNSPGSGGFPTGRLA
# assay-procedure: inhibition of GPR68/OGR1 in CHEM1-OGR1 cells, Fluo-8 calcium response to acidified media
# experimental-setup: acidified media pH 6.4, Fluo-8
pEC50: −log10 of the molar value.
property-measured: pEC50

Provide the documented pEC50 with GPR68/OGR1 (Homo sapiens (Human), UniProt Q15743) as the system for O=C1Nc2ccccc2C12NN=C(c1ccc(Cl)cc1)S2 (stereo not drawn) [OGM13]
> 6.40

Record CCc1ccc2c(c1)C1(NN=C(c3ccc(OC)cc3)S1)C(=O)N2 (stereo not drawn) [OGM28] : what is its pEC50 with GPR68/OGR1 (Homo sapiens (Human), UniProt Q15743)?
< 5.00

Requested read-out pEC50, target or system GPR68/OGR1 (Homo sapiens (Human), UniProt Q15743), entry CCc1ccc2c(c1)C1(NN=C(c3cccnc3)S1)C(=O)N2 (stereo not drawn) [OGM48]
< 5.00

State its pEC50 on GPR68/OGR1 (Homo sapiens (Human), UniProt Q15743): COc1ccc2c(c1)C1(NN=C(c3ccc4ncccc4c3)S1)C(=O)N2 (stereo not drawn) [OGM43]
< 5.00

Give pEC50 (GPR68/OGR1 (Homo sapiens (Human), UniProt Q15743)) of the following molecule: COc1ccc(C2=NNC3(S2)C(=O)N(CC=C(C)C)c2ccccc23)cc1 (stereo not drawn) [OGM30]
< 5.00

pEC50 of CCc1ccc2c(c1)C1(NN=C(c3ccncc3)S1)C(=O)N2 (stereo not drawn) [OGM60] on GPR68/OGR1 (Homo sapiens (Human), UniProt Q15743)?
> 6.40

// provenance: patent US12194027B2
